Below: a set of entries, each annotated with reported log10(IC50).
Target Of Assay: Gag-Pol polyprotein (Human immunodeficiency virus type 1 group M subtype B (isolate HXB2)(HIV-1))
Measurement Protocol: Inhibition Assay: The inhibition of WT HIV-1 protease was studied using the reaction of the protease (expressed in Eschericia coli) with a peptide substrate [Val-Ser-Gln-Asn-(betanaphthyl)Ala-Pro-Ile-Val (SEQ ID NO:1)]. Compounds were tested using Procedure A. In Procedure A, the test compound was first preincubated with the enzyme in assay buffer (50 mM sodium acetate, pH 5.5, 100 mM NaCl, and 0.1% BSA) for 30 minutes at room temperature. Substrate was then added to 400 micromolar in a total volume of 80 microliters containing 10 picomolar HIV-1 protease and the reaction was incubated for 1 hour at 30° C. The reaction was quenched with the addition of 120 microliters of 10% phosphoric acid. The product formation was determined after separation of product and substrate on a Zorbax Eclipse XDB-C18 column (Agilent Technologies, Santa Clara, Calif.) connected to an Agilent 1100 high performance liquid chromatography system with fluorescence detection (excitation 270 nanometer and emission 330 nanometer).
For clarity, the numbers are log10 values of IC50 expressed in nM.

COC(=O)N[C@H](C(=O)N[C@H](c1ccc([C@@H](CO)N(CCC(C)(C)C)S(=O)(=O)c2ccc(=O)[nH]c2)s1)C(F)(F)F)C(c1ccccc1)c1ccccc1    0.97
COC(=O)N[C@H](C(=O)N[C@H](c1ccc([C@@H](CO)N(CCC(C)(C)C)S(=O)(=O)C2=CC3NC=C(Cl)C3C=C2)s1)C(F)(F)F)C(c1ccccc1)c1ccccc1 (stereo partly drawn)    1.64
COC(=O)N[C@H](C(=O)N[C@H](c1ccc(C(CO)N(CCC(C)(C)C)S(=O)(=O)c2ccc(OC)nc2)s1)C(F)(F)F)C(c1ccccc1)c1ccccc1 (stereo partly drawn)    1.44
COC(=O)N[C@H](C(=O)N[C@H](c1ccc([C@@H](CO)N(C(C)C)S(=O)(=O)c2ccc(N)c(Cl)c2)s1)C(F)(F)F)C(c1ccccc1)c1ccccc1    1.97
COC(=O)N[C@H](C(=O)N[C@H](c1ccc([C@@H](CO)N(C(C)C)S(=O)(=O)c2ccc(Cl)s2)s1)C(F)(F)F)C(c1ccccc1)c1ccccc1    2.26
COC(=O)N[C@H](C(=O)NCc1ccc([C@@H](CO)N(CC2CC(F)(F)C2)S(=O)(=O)c2ccc(C(O)C(F)(F)F)cc2)s1)C(c1ccccc1)c1ccccc1 (stereo partly drawn)    1.43

Qu. Look up log10(IC50) for this compound: COC(=O)N[C@H](C(=O)NCc1ccc([C@@H](CO)N(CC2CC(F)(F)C2)S(=O)(=O)c2ccc(C(C)O)cc2)s1)C(c1ccccc1)c1ccccc1 (stereo partly drawn)
Ans. 0.95

Qu. Can you look up the measured log10(IC50) of COC(=O)N[C@H](C(=O)N[C@H](c1ccc([C@@H](CO)N(C(C)C)S(=O)(=O)c2ccc(N)cc2)s1)C(F)(F)F)[C@@H](c1ccccc1)c1c[nH]c2ncccc12 for me?
Ans. 0.60
